Origin of the recorded values: a melting point compilation (Tetko et al.; mined from patent text by program, amines drawn as free bases though some values may be those of a salt)

value.type: melting point

molecule: O=C(c1cccc2ccccc12)P1(=O)Oc2ccccc2-c2ccccc21 (stereo not given)
value.type: melting point
meas.value: 149 to 151 °C
--
molecule: O=[N+]([O-])c1cc([N+](=O)[O-])c(Nc2nc(-c3ccc(Cl)cc3Cl)cs2)c(C(F)(F)F)c1
value.type: melting point
meas.value: 125 to 130 °C
--
molecule: C=CCCONC(=O)c1nc(-c2ccc(Cl)c(OC)c2F)cc(N)c1Cl
value.type: melting point
meas.value: 141 to 143 °C
--
molecule: Cc1cccc(Nc2cc(Nc3ccc(OCCCO)cc3)ncn2)c1
value.type: melting point
meas.value: 196 to 200 °C
--
molecule: CCOC(=O)C(=O)C(C#N)c1ccc(Cl)cc1 (stereo not given)
value.type: melting point
meas.value: 135 to 136 °C
--
molecule: Cc1c(C(=O)N[C@@H](Cc2ccc(OCc3ccoc3)cc2)C(=O)O)oc2cc(-c3ccc(Cl)cc3)ccc12
value.type: melting point
meas.value: 108 to 110 °C
--
molecule: CCOc1ccc2c(=O)c(C(=O)O)cn(CCO)c2n1
value.type: melting point
meas.value: 220 °C
--
molecule: O=C1c2ccccc2C(O)N1c1ccc2ccc(F)nc2n1 (stereo not given)
value.type: melting point
meas.value: 246 °C
--
molecule: CCOC(=O)C(S)C(=S)Cc1ccc(Cl)cc1 (stereo not given)
value.type: melting point
meas.value: 36.5 to 37 °C
--
molecule: Nc1nc(N)nc(OCc2ccccc2)n1
value.type: melting point
meas.value: 184 to 185 °C

====

Quick list: melting point per entry.

compound: O=C1N(Cc2ccc(C(F)(F)F)o2)c2ccccc2C12COc1ccc(Br)cc12 (centres undefined)
melting point: 143 to 145 °C

compound: C[C@H](NC(=O)Cc1cccc(F)c1)C(=O)N[C@@H]1C(=O)Nc2ccccc2O[C@@H]1c1ccccc1
melting point: 130 to 140 °C

compound: C#CCOc1cc(OCC=C)ccc1-c1nc2cnccc2[nH]1
melting point: 195 °C

compound: COc1ccc(C=CCCCCOc2ccc(S(=O)(=O)c3cccc(C(=O)O)c3)cc2CCC(=O)O)cc1
melting point: 145 to 148 °C

compound: O=c1[nH]c2ccc3c(c2o1)OC(CNCc1ccccc1)CO3 (centres undefined)
melting point: 220 °C

compound: Cc1ccc(N2C(=O)C=CC2=O)cc1N1C(=O)C=CC1=O
melting point: 168 to 172 °C

compound: CCN(CC)c1cccc(-c2ccnc3c(C(=O)c4cccs4)cnn23)c1
melting point: 102 to 104 °C

compound: O=C1CCC(N2Cc3cc(CNC(=O)Nc4cc(C(F)(F)F)ccc4Cl)ccc3C2=O)C(=O)N1 (centres undefined)
melting point: 240 to 242 °C

compound: c1cn2nc(N3CCCCC3)c3c(c2n1)CCCC3
melting point: 95 °C

====

Quick list: melting point per entry.

compound: CCOC(=O)/C=C/c1cc(C(F)(F)F)ccc1C(=O)NCC(F)(F)F
melting point: 162 °C
--
compound: Cn1c(-c2cc(O)c3c(c2)C(=O)c2cccc(O)c2C3=O)nc2ccccc21
melting point: 266 to 267 °C
--
compound: CN(C)c1ccc(-c2cc3nccnc3[nH]2)cc1
melting point: 297 to 298 °C
--
compound: O=C(CCCCCn1ccnn1)NC[C@@H]1CN2C(=O)C[C@H]2O1 (racemic)
melting point: 108 to 109 °C
--
compound: OCc1cc2cccc(Nc3cc(-c4ccc(C(F)(F)F)cc4)ncn3)c2[nH]1
melting point: 221 to 223 °C
